target: HCV-NS5b (Hepatitis C virus genotype 1b); construct: (His)6 (C); made in house; host or cells: XL-1 cells (E. coli), IPTG-inducible plasmid, nickel-NTA purification; experiment: HCV-NS5b enzyme assay (incorporation of radiolabeled UTP); format: biochemical; conditions: read-out: % inh@100, enzyme inhibition at compound concentration of 100 uM
readout name: inhibition at 100 µM

Query string: What measured inhibition at 100 µM goes with O=C(O)c1ccc2c(c1)nc(-c1ccc3ncc(-c4ccccc4)cc3c1)n2C1CCCCC1 ?
Result string: 96.9%

Query string: What measured inhibition at 100 µM goes with CNC(=O)c1ccc(-c2ccccc2)c(-c2ccc3cc(-c4nc5cc(C(=O)O)ccc5n4C4CCCCC4)ccc3n2)c1 ?
Result string: 98.4%

Query string: What measured inhibition at 100 µM goes with Cn1c2ccc(Cl)cc2c2cc(-c3ccc4cc(-c5nc6cc(C(=O)O)ccc6n5C5CCCCC5)ccc4n3)ccc21 ?
Result string: 97.2%

Query string: What measured inhibition at 100 µM goes with COc1ccc(-c2ccc(F)cc2)c(-c2ccc3cc(-c4nc5cc(C(=O)O)ccc5n4C4CCCCC4)ccc3n2)c1 ?
Result string: 99.8%
